Tested on: EKVX NSCLC
PROCEDURE_SUMMARY: NCI-60 one-dose screen, 48 h (100 = growth as untreated, 0 = no growth, -100 = all killed)
APPLIED_CONDITIONS: 10 µM
The panel holds about 83,000 compounds, 20% with a hit somewhere; the sample as a whole holds those more often.
Short version: growth at least 70% is Fulfilled, less is Not fulfilled.

Consider the following illustrative entries.
[
  {
    "COMPOUND": "COc1ccc(C2=NN(C(=O)c3ccc(S(C)(=O)=O)cc3)C(c3ccc(OC)c(OC)c3)C2)c(OC)c1 (stereo not drawn)",
    "TESTED_SYSTEM": "EKVX NSCLC",
    "CLASS_NAME": "Fulfilled"
  },
  {
    "COMPOUND": "COc1ccc2c(c1)-c1c(c3cc(OC)ccc3n(CCN(C)C)c1=O)C2=O",
    "TESTED_SYSTEM": "EKVX NSCLC",
    "CLASS_NAME": "Not fulfilled"
  },
  {
    "COMPOUND": "COc1ccc(C2CC(c3ccc(N(C)C)cc3)=NN2c2ccc(S(N)(=O)=O)cc2)cc1 (stereo not drawn)",
    "TESTED_SYSTEM": "EKVX NSCLC",
    "CLASS_NAME": "Not fulfilled"
  },
  {
    "COMPOUND": "Cc1cc(Cl)nc(N(CCCNc2ccnc3cc(Cl)ccc23)Cc2cccs2)n1",
    "TESTED_SYSTEM": "EKVX NSCLC",
    "CLASS_NAME": "Not fulfilled"
  },
  {
    "COMPOUND": "COc1cc(-c2nc(-c3nnc(-c4ccccc4Cl)o3)c3ccccn23)cc(OC)c1OC",
    "TESTED_SYSTEM": "EKVX NSCLC",
    "CLASS_NAME": "Fulfilled"
  }
]

(Q) Please check the record "COc1ccc(/C(=C2/O[C@@H]([C@H]3COC(C)(C)O3)[C@H]3OC(C)(C)O[C@@H]23)c2cc(OC)c(OC)c(OC)c2)cc1O" and state if its growth is at or above 70%.
(A) Fulfilled

(Q) Say whether "CN1CCC(CNc2cc(C3(C(=O)Nc4cc(C(=O)Nc5ccc(Cl)c(C(F)(F)F)c5)ccc4F)CC3)ncn2)CC1" shows growth of 70% or more.
(A) Not fulfilled

(Q) Please indicate if the recorded growth for "O=C(Nc1cccc(Cl)c1)Nc1nccs1" meets or exceeds 70%.
(A) Fulfilled

(Q) Identify whether the reported growth of the following compound is 70% or greater: "COC(=O)[C@@H]1[C@H](O)[C@H](C)[C@H](O)[C@@](C)(O)/C=C\C=C(C)C(=O)Nc2c(C)c(OC(C)=O)c3c(c2O)C(=O)C(C)=C2OCOC(=C23)C(C)=C[C@@](C)(O)[C@H](O)[C@@H](C)[C@H]1OC(C)=O"
(A) Fulfilled

(Q) // inclusive: growth at least 70%? input: "COc1cc(/C=N/NC(=O)c2ccccc2Nc2cccc(C(F)(F)F)c2)cc(OC)c1OC"
(A) Not fulfilled
